target of assay: Env of HIV-1 strain R1166.c1 (HIV-1)
assay explanation: cell-based or functional assay
Please provide measured neutralization IC50 for the entries that follow.
Expressed in µg/mL, but write only the number.

input: Any idea what its neutralization IC50 is? The binder is γ59κ5 (antibody, V domains shown) VH: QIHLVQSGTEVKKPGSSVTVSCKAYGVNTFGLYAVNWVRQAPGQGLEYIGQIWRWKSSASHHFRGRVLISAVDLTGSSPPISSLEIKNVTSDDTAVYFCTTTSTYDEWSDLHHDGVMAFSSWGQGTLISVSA VL: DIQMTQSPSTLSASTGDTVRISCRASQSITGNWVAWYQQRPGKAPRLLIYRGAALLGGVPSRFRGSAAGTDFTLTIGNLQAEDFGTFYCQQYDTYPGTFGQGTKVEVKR
output: 28.2

input: Entry γ46κ18 (antibody, V domains shown) VH: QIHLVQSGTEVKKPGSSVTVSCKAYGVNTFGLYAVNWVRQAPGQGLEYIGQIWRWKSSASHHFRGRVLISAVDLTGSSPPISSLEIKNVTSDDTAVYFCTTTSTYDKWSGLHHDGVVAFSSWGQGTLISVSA VL: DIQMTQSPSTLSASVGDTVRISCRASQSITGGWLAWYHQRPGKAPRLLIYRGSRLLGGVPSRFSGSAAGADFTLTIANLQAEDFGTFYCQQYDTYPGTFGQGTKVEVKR : reported neutralization IC50 = ?
output: 4.1

// provenance: patent US20180171001A1
